Where do the numbers come from? From patent US20240050428A1.

- Test system: MOLM-13 cells
- Method notes: Cell viability assay (CellTiter-Glo) in MOLM-13 cells, alone or with gilteritinib
- Type: cell-based
- Condition notes: Homo sapiens, MOLM-13, 72 h, MOLM-13 cells, compound alone (without gilteritinib), three days, CellTiter-Glo; read-out: MOLM-13 IC50
pIC50: −log10 of the molar value.
Measured pIC50, listed per entry.

In the examples that follow, each entry is paired with its recorded pIC50.
O=C1CCC(N2C(=O)c3ccc(NCCCN4CCCC(n5cc(-c6cnc7ccccc7n6)cn5)C4)cc3C2=O)C(=O)N1 (stereo not shown) [GS-347]; < 6.00
Cn1ncc2c(-c3cn([C@H]4C[C@H](CNc5ccc6c(c5)C(=O)N(C5CCC(=O)NC5=O)C6=O)C4)nc3C3CC3)nccc21 (stereo partly shown) [GS-611]; > 8.00
COc1ccc(-c2cnn([C@H]3C[C@H](CCCNc4ccc5c(c4)C(=O)N(C4CCC(=O)NC4=O)C5=O)C3)c2)nc1 (stereo partly shown) [GS-462]; 6.00 to 7.00

Pending molecule:
Enter pIC50 (test system MOLM-13 cells) for O=C(CC1CC(N2CCC(n3cc(-c4cnc5ccccc5n4)cn3)CC2)C1)NCc1ccc2c(c1)CN(C1CCC(=O)NC1=O)C2=O (stereo not shown) [GS-082] < 6.00

====

- Test system: MV4;11 cells
- Method notes: Cell viability assay (CellTiter-Glo) in MV4;11 cells, alone or with gilteritinib
- Format: cell-based
- Condition notes: Homo sapiens, MV4-11, 72 h, MV4;11 cells, compound with gilteritinib 10 nM, three days, CellTiter-Glo; read-out: MV4; 11 IC50 gilteritinib
pIC50: −log10 of the molar value.
Measured pIC50, listed per entry.

CN1CC2CC1CN2c1ccc2ncc(-c3cn([C@H]4C[C@H](CCCNc5ccc6c(c5)C(=O)N(C5CCC(=O)NC5=O)C6=O)C4)nc3C3CC3)nc2c1 (stereo partly shown) [GS-594]; > 8.00
O=C1CCC(N2Cc3cc(NCCCCC(=O)N4CCC(n5cc(-c6cnc7ccccc7n6)cn5)CC4)ccc3C2=O)C(=O)N1 (stereo not shown) [GS-515]; 7.00 to 8.00
Cc1nn(CCCCCCNc2ccc3c(c2)C(=O)N(C2CCC(=O)NC2=O)C3=O)c(C)c1-c1nc2ccccc2nc1C(F)(F)F (stereo not shown) [GS-540]; 7.00 to 8.00

Answer with the recorded pIC50 for the compound listed here: CN1CCN(c2cccc(-c3cn([C@H]4C[C@H](CNc5ccc6c(c5)C(=O)N(C5CCC(=O)NC5=O)C6=O)C4)nc3C3CC3)n2)CC1 (stereo partly shown) [GS-440] 6.00 to 7.00

Answer with the recorded pIC50 for the compound listed here: O=C1CCC(N2Cc3cc(OCCC(=O)N4CCC(n5cc(-c6cnc7ccccc7n6)cn5)CC4)ccc3C2=O)C(=O)N1 (stereo not shown) [GS-485] < 6.00

Answer with the recorded pIC50 for the compound listed here: O=C1CCC(N2C(=O)c3ccc(NC[C@H]4C[C@H](n5cc(C6CCCCC6)c(C6CC6)n5)C4)cc3C2=O)C(=O)N1 (stereo partly shown) [GS-468] 7.00 to 8.00

Answer with the recorded pIC50 for the compound listed here: O=C1CCC(N2C(=O)c3ccc(NC[C@H]4C[C@H](n5ccc(C6CC6)n5)C4)cc3C2=O)C(=O)N1 (stereo partly shown) [GS-588] < 6.00
